# credit: PubChem BioAssay (EPA / NIEHS)

target: Cellular tumor antigen p53 (Homo sapiens) (UniProt P04637); assay: TOX21_p53_BLA_p4_ratio: Tox21 HCT-116 p53 Agonism Beta-lactamase Assay, Ratio, Phase 4 (AID 2283601)
Sequence (P04637 whole entry, looked up): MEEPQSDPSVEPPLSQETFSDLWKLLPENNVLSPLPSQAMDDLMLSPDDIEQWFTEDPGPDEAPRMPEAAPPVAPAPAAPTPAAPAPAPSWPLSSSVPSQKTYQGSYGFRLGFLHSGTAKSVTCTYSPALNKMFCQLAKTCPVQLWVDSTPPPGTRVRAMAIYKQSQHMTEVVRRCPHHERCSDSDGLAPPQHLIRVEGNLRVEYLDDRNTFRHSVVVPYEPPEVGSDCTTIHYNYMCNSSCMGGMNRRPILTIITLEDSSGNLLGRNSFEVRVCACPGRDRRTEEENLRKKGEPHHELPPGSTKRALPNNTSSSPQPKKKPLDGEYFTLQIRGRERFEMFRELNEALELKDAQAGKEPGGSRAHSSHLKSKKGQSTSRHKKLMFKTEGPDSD
Records with an inconclusive call do not appear. The source made the active and inactive calls. How the source made its calls: active means hit-call score of the fitted dose curve at least 0.9, where 1 is the maximum; inconclusive means response in the unintended direction; inactive means score below 0.9.
Possible outcomes: active, inactive

| compound | category |
| --- | --- |
| CCN(CC)CC(=O)Nc1c(C)cccc1C | inactive |
| CCCOCC(C)OCC(C)O (centres undefined) | inactive |
| Nc1nc(-c2ccc([N+](=O)[O-])cc2)cs1 | inactive |
| OCC(O)COc1ccc(Cl)cc1 (centres undefined) | inactive |
| O=C(O)COc1ccccc1/C=N/NC(=O)c1ccncc1 | inactive |
| O=Cc1ccc(F)c(Br)c1 | inactive |
| CC(C)(C)C(=O)OCC(=O)[C@H]1CC[C@H]2[C@@H]3CCC4=CC(=O)CC[C@]4(C)[C@H]3CC[C@]12C | inactive |
| CN(C)CC[C@@H](c1ccc(Cl)cc1)c1ccccn1 | inactive |
| CC(=O)CCC=C(C)CC/C=C(\C)CC/C=C(\C)CCC=C(C)C | inactive |
| COc1ccc(/C=C/c2cc(OC)cc(=O)o2)cc1 | inactive |
| CO[C@@]1(NC(=O)C(C(=O)O)c2ccc(O)cc2)C(=O)N2C(C(=O)O)=C(CSc3nnnn3C)CO[C@@H]21 (some centres undefined) | inactive |
| C=C1[C@H](CO)[C@@H](O)C[C@@H]1n1cnc2c(=O)[nH]c(N)nc21 | inactive |
| C[C@@H](N)C(=O)O | inactive |
| Cc1cnc(C)c(C)n1 | inactive |
| O=S(=O)(O)CO | inactive |
| Cc1cccc(O)c1N | inactive |
| CO/N=C(\C(=O)N[C@@H]1C(=O)N2C(C(=O)O)=C(C[N+]3(C)CCCC3)CS[C@H]12)c1csc(N)n1 | inactive |
| COc1ccc2c(c1)C(=O)N(CCc1ccc(S(=O)(=O)NC(=O)NC3CCCCC3)cc1)C(=O)C2(C)C | inactive |
| C[Se]CC[C@H](N)C(=O)O | inactive |
| CC(=O)OCC(=O)[C@@]1(O)CC[C@H]2[C@@H]3C[C@H](C)C4=CC(=O)C=C[C@]4(C)[C@H]3[C@@H](O)C[C@@]21C | inactive |
| CN(C)CCN(Cc1ccc(Cl)cc1)c1ccccn1 | inactive |
| [O]=[Bi][O][Bi]=[O] | inactive |
| CC(=O)NC[C@H]1CN(c2ccc(N3CCOCC3)c(F)c2)C(=O)O1 | inactive |
| C[C@@H]1CC[C@@]2(OC1)O[C@H]1C[C@H]3[C@@H]4CC[C@H]5C[C@@H](O)CC[C@]5(C)[C@H]4CC(=O)[C@]3(C)[C@H]1[C@@H]2C | inactive |
| O=C1CCCc2c1cc1ccc3cccc4ccc2c1c34 | inactive |
| CCN(CC)CCNC(=O)COc1ccc(OC)cc1 | inactive |
| CCCN(CCC)C(=O)C(CCC(=O)O)NC(=O)c1ccccc1 (centres undefined) | inactive |
| N[C@H]1CN(c2c(F)cc3c(=O)c(C(=O)O)cn(C4C[C@H]4F)c3c2Cl)CC12CC2 (some centres undefined) | inactive |
| O=C(c1ccc(Cl)cc1)c1ccc(Cl)cc1 | inactive |
| Nc1ccc(C(=O)NCC(=O)O)cc1 | inactive |
| CC(=O)c1ccc2ccc3ccccc3c2c1 | active |
| C=CCc1cc(OC)c(O)c(C(=O)NCCO)c1 | inactive |
| Nc1cccc2c(=O)[nH][nH]c(=O)c12 | inactive |
| CC(N)CN (centres undefined) | inactive |
| CCCCOC(=O)CCS | inactive |
| NC(=O)Cc1cccc2ccccc12 | inactive |
| Cc1ccc2ccccc2c1[N+](=O)[O-] | inactive |
| CC(C)C(=O)OCC(C)(C)C(O)C(C)C (centres undefined) | inactive |
| CCCCc1ncc(/C=C(\Cc2cccs2)C(=O)O)n1Cc1ccc(C(=O)O)cc1 | inactive |
| COc1ccc([C@@H]2CC(=O)c3c(O)cc(O[C@@H]4O[C@H](CO[C@@H]5O[C@@H](C)[C@H](O)[C@@H](O)[C@H]5O)[C@@H](O)[C@H](O)[C@H]4O)cc3O2)cc1O | inactive |
| C=CCc1ccccc1OCC(O)CNC(C)C (centres undefined) | inactive |
| NC1[C@H]2CN(c3nc4c(cc3F)c(=O)c(C(=O)O)cn4-c3ccc(F)cc3F)C[C@@H]12 (some centres undefined) | inactive |
| O=C1CCCc2ccccc21 | inactive |
| CC1COc2c(N3CCN(C)CC3)c(F)cc3c(=O)c(C(=O)O)cn1c23 (centres undefined) | inactive |
| Cc1ccc(NC(N)=O)cc1 | inactive |
| CC(=O)c1cnccn1 | inactive |
| COc1cc(C(=O)NC2CCCNC2)cc(OC)c1OC (centres undefined) | inactive |
| CC(C)(C)C(=O)NCCCC(=O)O | inactive |
| FC(F)(F)c1cccc(Cl)c1 | inactive |
